- system-under-test: Neuronal acetylcholine receptor subunit alpha-7 (Homo sapiens)
- measurement-description: Binding affinity to alpha7 nAchR in human frontal cortex membranes
- Assay type: cell membranes, Membrane

| compound | Ki, nM |
| --- | --- |
| CN1CC2CN(c3ccc(-c4ccccc4)nn3)CC2C1 (stereo unspecified) | 17 |

----------
- system-under-test: 5-hydroxytryptamine receptor 3A (Mus musculus) (UniProt P23979)
- Sequence (P23979 whole entry, looked up): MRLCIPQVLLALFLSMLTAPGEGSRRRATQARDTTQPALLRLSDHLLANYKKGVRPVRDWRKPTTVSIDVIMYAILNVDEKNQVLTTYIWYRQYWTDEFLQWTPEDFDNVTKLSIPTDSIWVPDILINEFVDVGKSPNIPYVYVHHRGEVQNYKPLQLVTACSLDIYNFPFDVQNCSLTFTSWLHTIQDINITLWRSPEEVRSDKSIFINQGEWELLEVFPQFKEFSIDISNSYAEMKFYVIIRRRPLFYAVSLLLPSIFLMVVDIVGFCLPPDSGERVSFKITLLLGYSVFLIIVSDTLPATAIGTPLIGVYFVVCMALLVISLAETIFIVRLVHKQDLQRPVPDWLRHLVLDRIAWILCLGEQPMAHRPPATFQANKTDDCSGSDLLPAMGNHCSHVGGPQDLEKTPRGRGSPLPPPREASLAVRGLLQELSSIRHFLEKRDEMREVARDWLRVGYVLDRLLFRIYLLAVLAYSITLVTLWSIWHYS

| compound | IC50 [nM] |
| --- | --- |
| O=C(N[C@@H]1CN2CCC1CC2)c1n[nH]c2ccccc12 [FACINICLINE] | 32.7 |

----------
- system-under-test: Neuronal acetylcholine receptor subunit alpha-7 (Homo sapiens, UniProt P36544)
- Sequence (P36544 whole entry): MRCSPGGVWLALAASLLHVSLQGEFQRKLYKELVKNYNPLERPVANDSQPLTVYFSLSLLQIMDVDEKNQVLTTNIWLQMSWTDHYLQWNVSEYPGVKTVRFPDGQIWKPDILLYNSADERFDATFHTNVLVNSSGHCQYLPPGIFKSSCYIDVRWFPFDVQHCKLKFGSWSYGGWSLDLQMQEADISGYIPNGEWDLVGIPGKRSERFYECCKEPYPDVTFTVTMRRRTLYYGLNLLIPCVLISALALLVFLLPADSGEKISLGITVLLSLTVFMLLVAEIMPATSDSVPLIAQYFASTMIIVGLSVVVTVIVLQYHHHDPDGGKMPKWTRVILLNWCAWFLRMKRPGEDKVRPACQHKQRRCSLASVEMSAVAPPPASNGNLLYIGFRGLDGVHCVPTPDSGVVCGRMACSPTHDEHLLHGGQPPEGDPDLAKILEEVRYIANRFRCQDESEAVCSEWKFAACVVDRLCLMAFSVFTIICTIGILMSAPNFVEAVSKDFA
- measurement-description: Agonist activity at human alpha7 nAChR expressed in QM7 cells
- Assay type: functional, cell-based
pEC50: −log10 of the molar value.

| smiles | pEC50 |
| --- | --- |
| O=C(N[C@@H]1CN2CCC1CC2)c1n[nH]c2ccccc12 | 5.11 |

----------
Below, each of the molecules is paired with its reported IC50 value.
- system-under-test: 5-hydroxytryptamine receptor 3A (Homo sapiens, UniProt P46098)
- Sequence (P46098 whole entry): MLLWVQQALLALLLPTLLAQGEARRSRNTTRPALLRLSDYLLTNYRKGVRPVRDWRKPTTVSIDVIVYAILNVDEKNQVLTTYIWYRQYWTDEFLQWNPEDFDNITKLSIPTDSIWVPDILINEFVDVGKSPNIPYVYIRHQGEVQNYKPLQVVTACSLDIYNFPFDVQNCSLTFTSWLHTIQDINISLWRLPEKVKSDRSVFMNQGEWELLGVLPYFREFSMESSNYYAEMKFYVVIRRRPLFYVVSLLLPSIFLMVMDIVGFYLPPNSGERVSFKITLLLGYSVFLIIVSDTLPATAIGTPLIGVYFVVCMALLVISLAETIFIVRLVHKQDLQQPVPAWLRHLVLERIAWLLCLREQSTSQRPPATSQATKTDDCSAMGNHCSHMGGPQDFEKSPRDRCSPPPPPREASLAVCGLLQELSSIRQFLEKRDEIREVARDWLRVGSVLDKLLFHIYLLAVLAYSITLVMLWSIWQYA
- measurement-description: Inhibition of 5HT3 receptor
measured-attribute: IC50 (nM)

| smiles | reported-measurement |
| --- | --- |
| O=C(N[C@H]1CN2CCC1CC2)c1ccc2ccoc2c1 | 962 |
| O=C(N[C@H]1CN2CCC1CC2)c1ccc2ccsc2c1 | 188 |
| O=C(N[C@H]1CN2CCC1CC2)c1ccc2occc2c1 | 580 |

----------
- system-under-test: Neuronal acetylcholine receptor; alpha3/beta4 (Homo sapiens, UniProt P30926+P32297)
- Sequence (P30926 whole entry): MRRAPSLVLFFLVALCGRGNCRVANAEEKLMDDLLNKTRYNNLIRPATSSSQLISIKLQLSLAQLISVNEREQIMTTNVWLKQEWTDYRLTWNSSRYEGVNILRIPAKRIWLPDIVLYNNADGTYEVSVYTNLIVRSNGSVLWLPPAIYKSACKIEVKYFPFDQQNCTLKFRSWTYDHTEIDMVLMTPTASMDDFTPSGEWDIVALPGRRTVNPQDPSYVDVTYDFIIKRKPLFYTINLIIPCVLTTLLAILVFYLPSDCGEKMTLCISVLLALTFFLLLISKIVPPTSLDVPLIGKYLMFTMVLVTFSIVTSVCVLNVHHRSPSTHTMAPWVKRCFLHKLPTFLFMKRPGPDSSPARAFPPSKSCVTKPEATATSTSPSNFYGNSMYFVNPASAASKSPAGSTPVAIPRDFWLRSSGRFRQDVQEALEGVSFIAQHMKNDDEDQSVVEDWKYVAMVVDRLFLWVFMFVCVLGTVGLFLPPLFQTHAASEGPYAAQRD
- Sequence (P32297 whole entry): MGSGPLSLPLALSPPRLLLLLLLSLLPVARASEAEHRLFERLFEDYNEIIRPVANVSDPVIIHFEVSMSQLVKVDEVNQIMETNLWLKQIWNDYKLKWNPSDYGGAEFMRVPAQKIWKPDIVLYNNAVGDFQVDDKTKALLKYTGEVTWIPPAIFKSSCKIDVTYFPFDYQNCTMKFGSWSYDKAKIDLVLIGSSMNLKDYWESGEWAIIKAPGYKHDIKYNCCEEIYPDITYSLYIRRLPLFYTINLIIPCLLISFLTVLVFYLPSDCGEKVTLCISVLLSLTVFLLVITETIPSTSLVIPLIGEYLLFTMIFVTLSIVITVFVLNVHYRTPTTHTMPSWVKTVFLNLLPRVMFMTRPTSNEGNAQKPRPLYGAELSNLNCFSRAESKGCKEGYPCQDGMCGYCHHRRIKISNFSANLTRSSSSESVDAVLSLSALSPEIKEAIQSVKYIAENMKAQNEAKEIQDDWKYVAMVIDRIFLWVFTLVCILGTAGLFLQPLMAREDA
- measurement-description: Antagonist activity at alpha3beta4 nAChR assessed as amplitude of acetylcholine evoked currents
pIC50: −log10 of the molar value.

| smiles | pIC50 |
| --- | --- |
| C=CC[C@@H]1CC[C@@H](CC)[C@@H]2CCCCN12 | 5.06 |
